Reported log10(Ki) by item:
Target: Phosphatidylinositol 4,5-bisphosphate 3-kinase catalytic subunit alpha isoform (Homo sapiens)
Sequence (P42336 whole entry, canonical isoform): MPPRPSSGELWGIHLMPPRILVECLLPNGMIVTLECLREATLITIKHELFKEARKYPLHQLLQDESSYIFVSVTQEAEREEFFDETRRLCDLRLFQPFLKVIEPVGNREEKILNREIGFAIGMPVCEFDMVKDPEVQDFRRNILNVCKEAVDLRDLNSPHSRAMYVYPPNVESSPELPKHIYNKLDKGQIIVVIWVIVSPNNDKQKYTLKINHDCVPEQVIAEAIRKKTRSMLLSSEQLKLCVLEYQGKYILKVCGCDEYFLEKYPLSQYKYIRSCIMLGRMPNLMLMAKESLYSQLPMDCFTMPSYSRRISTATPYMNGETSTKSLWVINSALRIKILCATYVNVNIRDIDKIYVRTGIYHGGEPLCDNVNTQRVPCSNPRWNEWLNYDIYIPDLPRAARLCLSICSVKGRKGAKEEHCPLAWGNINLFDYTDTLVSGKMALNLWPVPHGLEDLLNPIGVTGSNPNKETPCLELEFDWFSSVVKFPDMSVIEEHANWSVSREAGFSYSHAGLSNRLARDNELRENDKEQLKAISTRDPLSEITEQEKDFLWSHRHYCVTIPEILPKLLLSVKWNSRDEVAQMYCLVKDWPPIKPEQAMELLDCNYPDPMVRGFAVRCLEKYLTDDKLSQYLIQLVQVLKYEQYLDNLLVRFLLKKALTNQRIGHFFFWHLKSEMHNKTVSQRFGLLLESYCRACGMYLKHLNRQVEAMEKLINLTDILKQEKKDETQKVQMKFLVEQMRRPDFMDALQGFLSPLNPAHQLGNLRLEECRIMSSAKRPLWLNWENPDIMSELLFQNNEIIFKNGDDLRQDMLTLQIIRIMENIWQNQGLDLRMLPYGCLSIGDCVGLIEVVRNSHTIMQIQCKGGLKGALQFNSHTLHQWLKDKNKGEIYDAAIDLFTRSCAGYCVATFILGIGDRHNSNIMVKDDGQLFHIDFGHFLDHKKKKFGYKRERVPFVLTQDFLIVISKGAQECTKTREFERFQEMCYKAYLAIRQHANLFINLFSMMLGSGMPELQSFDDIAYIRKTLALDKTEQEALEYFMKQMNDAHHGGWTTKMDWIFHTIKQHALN
Note the log scale: values are log10 of Ki expressed in nM.

Check out these entries, answers already filled in.
>>> print(df.to_string())
                              line_notation  recorded_result
0  Cc1nc(N)nc(-c2cccnc2Nc2cnc(Cl)c(NS(=O)(=O)C3CC3)c2)n1             1.04
1  Cc1nc(N)nc(-c2cccnc2Nc2cnc(Cl)c(NS(=O)(=O)N(C)C(C)C)c2)n1             1.63

Q: State, in one line, measured log10(Ki) of `Cc1nc(N)nc(-c2cc(Cl)cnc2Nc2cnc(Cl)c(NS(=O)(=O)c3cccnc3)c2)n1`
Result: 1.11

---

Reported MRT by item:
Test: in vivo
Conditions: Sprague-Dawley, rat, iv, 1 mg/kg
Description: Mean residence time in Sprague-Dawley rat at 1 mg/kg, iv
Answer with a number only, understood to be in h.

>>> df
                              line_notation  recorded_result
0  COc1cnc(Nc2cnc(Cl)c(NS(C)(=O)=O)c2)c(-c2nc(C)nc(N)n2)c1              1.3
1  COCCOc1cnc(Nc2cnc(Cl)c(NS(C)(=O)=O)c2)c(-c2nc(C)nc(N)n2)c1              1.1
2  COc1cnc(Nc2cnc(Cl)c(NS(=O)(=O)N(C)C)c2)c(-c2nc(C)nc(N)n2)c1                2

Here is another compound to look at.
Q: State, in one line, measured MRT of `Cc1nc(N)nc(-c2cc(Cl)cnc2Nc2cnc(Cl)c(NS(=O)(=O)N(C)C)c2)n1`
Result: 2.5

---

Reported bioavailability by item:
Assay: in vivo
Details: Sprague-Dawley, rat, po, 2 mg/kg
Answer with a number only, understood to be in %.

Check out these entries, answers already filled in.
>>> df
                              line_notation  recorded_result
0  COc1cnc(Nc2cnc(Cl)c(NS(=O)(=O)N(C)C)c2)c(-c2nc(C)nc(N)n2)c1               22
1  COCCOc1cnc(Nc2cnc(Cl)c(NS(C)(=O)=O)c2)c(-c2nc(C)nc(N)n2)c1               28

Here is another molecule to look at.
Q: State, in one line, measured bioavailability of `Cc1nc(N)nc(-c2cc(Cl)cnc2Nc2cnc(Cl)c(NS(=O)(=O)N(C)C)c2)n1`
Result: 63

---

Test: Plasma protein binding in mouse
Format: ADME, cell-free
Settings: read-out: PPB (converted)
Quantity kind: fraction unbound
Reply: number alone, nothing else.

Q: State, in one line, measured fraction unbound of `Cc1nc(N)nc(-c2cc(Cl)cnc2Nc2cnc(Cl)c(NS(=O)(=O)N(C)C)c2)n1`
Result: 0.0287

---

Assay: in vivo
Conditions: Sprague-Dawley, rat, iv, 1 mg/kg
Quantity kind: Vd (L/kg)
Answer with a number only, understood to be in L/kg.

Check out these entries, answers already filled in.
                              line_notation  recorded_result
0  COCCOc1cnc(Nc2cnc(Cl)c(NS(C)(=O)=O)c2)c(-c2nc(C)nc(N)n2)c1             0.52
1  COc1cnc(Nc2cnc(Cl)c(NS(C)(=O)=O)c2)c(-c2nc(C)nc(N)n2)c1             0.28
2  COc1cnc(Nc2cnc(Cl)c(NS(=O)(=O)N(C)C)c2)c(-c2nc(C)nc(N)n2)c1             1.01

Here is another compound to look at.
Q: State, in one line, measured Vd of `Cc1nc(N)nc(-c2cc(Cl)cnc2Nc2cnc(Cl)c(NS(=O)(=O)N(C)C)c2)n1`
Result: 0.97

---

Test: in vitro
Conditions: rat, liver microsomes
Description: Clearance in rat liver microsomes at 1 uM after 30 mins in presence of NADPH
Reported microsomal CLint at 0.5 h, 1 µM by item:
Answer with a number only, understood to be in µL/min/mg.

>>> print(df.to_string())
                              line_notation  recorded_result
0  COc1cnc(Nc2cnc(Cl)c(NS(=O)(=O)N(C)C)c2)c(-c2nc(C)nc(N)n2)c1               20

Here is another molecule to look at.
Q: State, in one line, measured microsomal CLint at 0.5 h, 1 µM of `Cc1nc(N)nc(-c2cc(Cl)cnc2Nc2cnc(Cl)c(NS(=O)(=O)N(C)C)c2)n1`
Result: 27

---

Assay: physchem
Details: simulated intestinal fluid
Description: Equilibrium solubility of the compound in simulated intestinal fluid after 48 to 72 hrs
Tag: Met if measured solubility thermodynamic is not below 20 µg/mL, Not met if it is.

                              line_notation      cat
0  COc1cnc(Nc2cnc(Cl)c(NS(C)(=O)=O)c2)c(-c2nc(C)nc(N)n2)c1  Not met
1  Cc1nc(N)nc(-c2cc(CN3CCOCC3)cnc2Nc2cnc(Cl)c(NS(=O)(=O)N(C)C)c2)n1  Not met
2  Cc1nc(N)nc(-c2cccnc2Nc2cnc(Cl)c(NS(C)(=O)=O)c2)n1      Met
3  Cc1nc(N)nc(-c2cc(Cl)cnc2Nc2cnc(Cl)c(NS(=O)(=O)N(C)C)c2)n1      Met
4  COCCN(C)S(=O)(=O)Nc1cc(Nc2ncc(Cl)cc2-c2nc(C)nc(N)n2)cnc1Cl      Met
5  Cc1nc(N)nc(-c2cc(CN3CCOCC3)cnc2Nc2cnc(Cl)c(NS(C)(=O)=O)c2)n1  Not met

Q: Threshold query (solubility thermodynamic >= 20 µg/mL) on `COc1cnc(Nc2cnc(Cl)c(NS(=O)(=O)N3CCOCC3)c2)c(-c2nc(C)nc(N)n2)c1`
Result: Not met

---

Target: Phosphatidylinositol 4,5-bisphosphate 3-kinase catalytic subunit alpha isoform (Homo sapiens)
Quantity kind: log10 Ki (log10 of the value in nM)
Note the log scale: values are log10 of Ki expressed in nM.

Check out these entries, answers already filled in.
In [3]: df
Out[3]:
                              line_notation  quantity_kind  recorded_result
0   Cc1nc(N)nc(-c2cccnc2Nc2cnc(Cl)c(N)c2)n1       log10 Ki             2.56
1  Cc1nc(N)nc(-c2cc(CN3CCOCC3)cnc2Nc2cnc(Cl)c(NS(C)(=O)=O)c2)n1       log10 Ki             0.99
2  Cc1nc(N)nc(-c2cc(Cl)cnc2Nc2cnc(C)c(NS(C)(=O)=O)c2)n1       log10 Ki             2.21
3  Cc1nc(N)nc(-c2cccnc2Nc2cnc(Cl)c(NS(C)(=O)=O)c2)n1       log10 Ki             1.30
4  Cc1nc(N)nc(-c2cccnc2Nc2cnc(Cl)c(NS(=O)(=O)c3ccc(F)cc3)c2)n1       log10 Ki             1.20
5  Cc1nc(N)nc(-c2cc(Cl)cnc2Nc2cnc(Cl)c(NS(C)(=O)=O)c2)n1       log10 Ki             0.54
6  Cc1nc(N)nc(-c2cc(Cl)cnc2Nc2cnc(Cl)c(NS(=O)(=O)N(C)C)c2)n1       log10 Ki             0.89
7  COc1ncc(Nc2ncc(Cl)cc2-c2nc(C)nc(N)n2)cc1NS(C)(=O)=O       log10 Ki             2.06
8  COc1cnc(Nc2cnc(Cl)c(NS(=O)(=O)N3CCOCC3)c2)c(-c2nc(C)nc(N)n2)c1       log10 Ki             1.11
9  Cc1nc(N)nc(-c2cc(CN3CCOCC3)cnc2Nc2cnc(Cl)c(NS(=O)(=O)N(C)C)c2)n1       log10 Ki             0.28

Q: State, in one line, measured log10 Ki of `COc1cnc(Nc2cnc(Cl)c(NS(C)(=O)=O)c2)c(-c2nc(C)nc(N)n2)c1`
Result: 1.04

Q: State, in one line, measured log10 Ki of `Cc1nc(N)nc(-c2cccnc2Nc2cnc(Cl)c(NS(=O)(=O)N(C)C)c2)n1`
Result: 1.04

Q: State, in one line, measured log10 Ki of `Cc1nc(N)nc(-c2cc(Cl)cnc2Nc2cnc(Cl)c(NS(=O)(=O)N3CCOCC3)c2)n1`
Result: 0.93

Q: State, in one line, measured log10 Ki of `COc1cnc(Nc2cnc(Cl)c(NS(=O)(=O)N(C)C)c2)c(-c2nc(C)nc(N)n2)c1`
Result: 0.97

Q: State, in one line, measured log10 Ki of `COCCN(C)S(=O)(=O)Nc1cc(Nc2ncc(Cl)cc2-c2nc(C)nc(N)n2)cnc1Cl`
Result: 1.46

---

Experiment: in vitro
Details: rat, liver microsomes
Quantity kind: microsomal CLint at 0.5 h, 1 µM

Check out these entries, answers already filled in.
>>> df
                              line_notation  recorded_result
0  COCCOc1cnc(Nc2cnc(Cl)c(NS(C)(=O)=O)c2)c(-c2nc(C)nc(N)n2)c1   < 14 µL/min/mg
1  Cc1nc(N)nc(-c2cccnc2Nc2cnc(Cl)c(NS(C)(=O)=O)c2)n1   < 14 µL/min/mg

Q: State, in one line, measured microsomal CLint at 0.5 h, 1 µM of `COc1cnc(Nc2cnc(Cl)c(NS(C)(=O)=O)c2)c(-c2nc(C)nc(N)n2)c1`
Result: < 14 µL/min/mg

Sourced from ChEMBL document CHEMBL2203208
